- System: MS2 coat protein
- PROTOCOL DESCRIPTION: apparent KD of MS2 coat protein, switch ON state; designed switch direction (-1 OFF switch, 1 ON switch): -1; higher = weaker reporter binding
- MEASUREMENT CONDITIONS: FMN input: 0 or 200 uM; Eterna round: R93 (includes R88 designs)
OBSERVATION TYPE: apparent KD of MS2 coat protein (nM)
Give bare numbers, in nM.

- AAGAACAGAGGAUAUACAUGAGGAUCACCCAUGUAAAAGAAAGAAGGGAAAGAGAAAAGUAGAAGGCUGAAGAA [Titaru]: 25
- AAAAAGUAAGGAUAUAGCAAAGGUCACGAAAGUGACAAAGGCUAGAAGGUACAUGAGGAUCACCCAUGUCCAAA [Fiskers Exclusion 4 D2 63% 3]: 19.9
- GGUUUGCAAGGAUAUACAUGAGGAUCACCCAUGUGAGAGAAAAAAGUGAGAAAGAAAAGUAGAAGGUGCGGACG [salish99-ex3-121]: 22.3
- AAAAAGUCAGGAUAUAUAGGAAAAAUAAAAAAAAUAAAACUAUAGAAGGGACAUGAGGAUCACCCAUGUUAAAA [Ex 4 May 15]: 45.4
- AGCUAGUCAGGAUAUACAAAAAUGACAGAAGACGUAAGGGAACAUGAGGAUCACCCAUGUAGAAGGGACUAGCA [Diamond 43]: 61.5
- AUAAAACAUGAGGAUCACCCAUGUGAGGAUAUGCGAAAUAAUGAAUAAAGAAAUAAAAGCAGAAGGCACAAAAA [LROPPY Exclusion 1 - v05_deltaG=1.64 break up some As mixed]: 32.8

Request: Please look up its apparent KD of MS2 coat protein: CUCUUGUGAGGAUAUAGAAGAAAAGAAAAGAAAGAAAAGAACUAGAAGGCACAUGAGGAUCACCCAUGUAAGAA [EteRNA is fun!]
Response: 38.7

----------
Provide the recorded apparent KD of MS2 coat protein for the entries that follow.
- Tested on: MS2 coat protein
- PROTOCOL DESCRIPTION: apparent KD of MS2 coat protein; higher = weaker reporter binding
- MEASUREMENT CONDITIONS: Eterna round: R107; input ligand: tryptophan 2.4 mM
Numbers only, in nM.

• AAUUCCUCACAUGAGGAUCACCCAUGUGAAGGAGCGCCGAAUAAGGCAGGUAGGUCGCACAUGGAAACCGCUACGAAAGUAGUAA [XArg-A 2 NuV2] = 19.2
• GGACUAACCAGAAGGAGCGACGCGCAGAAACUGCAAAAUCCUCCACACGAGGAUCACCCGUGUCAGGUAGGUCGCUGGUUAGUCG [ArgXB 16 #CuTurnoff #MS2Left #StaticStem #Blueprint] = 31.3
• CCCAGUUAUAACAAAGGAAUUAUACUCGAAGGAGCGUCAUAGUAGGCAGGUAGGUCGCGAGACAUGAGGAUCACCCAUGUAGAGA [k,lmullin] = 50
• CCUCAAUCGUCGGCCGCCACUGAAUCAUGCGGAUACAUGAGGAUCACCCAUGUGGGUGUGGUACGCAGGACCGGGACAAGACCCG [#14 Same State - Tryptophan B] = 152
• UGGUACAUGAGGAUCACCCAUGUUCCAGAUACCAGCGUCCCGGUGCGCCCUUGGCAGCUGGUGGUACAUGAGGAUCACCCAUGUG [Exclusion Theophylline A GF14] = 44.9
• UCUAGGCUCGGAAACGAGCCUAGUACAGAAGGAGCGUGGAUUAACACAGGUAGGUCGCUGACAUGAGGAUCACCCAUGUAUUAUU [SSAA #3] = 27.7
• GGGAAAUGAAUAGAAUGAGAUGACACAGAAGGAGCGCGGAUUAACGCAGGUAGGUCGCUGACAACAUGAGGAUCACCCAUGUUUC [#10 Same State - Arginine A] = 14.1
• UGCUGACAAGGACAUGGAUGAUCAGCUGAUACCAGCCUGGAAACAGGCCCUUGGCAGCAGCACAUGAGGAUCACCCAUGUAAUAA [(T)'-(M)'-(T1)-(T2)-(M1)-(M2)_Design3(Mismatches)] = 27.2

Please supply apparent KD of MS2 coat protein for each of the following items, keeping them in order.
1. UGUCCUCAUGCGGCCGCCACUGUCGGCCGCCACUAAACAUGAGGAUCACCCAUGUAGGACCGGGACAGGACCGGGCAUGGGUGCU [TryBS - #DoubleAptamer]
2. AGUAGACACGCGGCCGCCACUUGAGGAUCACCCAGGUGGUGUGUACUUGAAACAAGUGCACAAUCAAGGACCGGGCGUGUCUACA [Omei Tryp B SS D v1]
3. AGCCCGGGAGCGGCCGCCACUGGAGGCUUAGCGCGACAUGAGGAUCACCCAUGUGUGCCCGGCGUUAGGACCGGGCUCGCGUGGU [#1 Same State - Tryptophan B Attempt #22 (HarryS)]

Response:
319
83.7
35.2

----------
- System: MS2 coat protein
- PROTOCOL DESCRIPTION: apparent KD of MS2 coat protein; higher = weaker reporter binding
- MEASUREMENT CONDITIONS: Eterna round: R107; input ligand: tryptophan 2.4 mM
Lab note: anything with apparent KD of MS2 coat protein at or over 30 nM counts as Met; the rest go in Not met.

Examples with answers:
- UGUACCAUGUCGGCCGCCACUCAUGAUAAGCAUGAGGAUCACCCAUGUAGCGUCAAAGACGCUAUGAGGACCGGGACAUGGUACU [TryBS Zipper 2]: Not met
- UCUGGGUCCGCAAGGACCUGGAGUUGCGAUACCAGCACGGUAACGUGCCCUUGGCAGCGCACAUGAGGAUCACCCAUGUGGUGUU [#1 Exclusion - Theophylline A Attempt #17 (HarryS)]: Met
- UGACAUUGCUCAGAUACCAGACAUGAGGAUCACCCAUGUGCCAAAACGUACUAAAUAAAUGUCCCUUGGCAGCUGAGCAAUGUCU [TheoBX 13 #MS2Left #Theo2]: Not met
- GAAGGAGUUAUGGGUACUCCUUCACUGGAAGGAGCGAGCGAAAGCUCAGGUAGGUCGCCAGAAACAUGAGGAUCACCCAUGUAAU [(A)''-(M)'-(A)'-(Arg1)-(Arg2)-(M1)-(M2)_Design6]: Met
- CUAGGAAACUAGUAAGGGUGGUAUAGAGAUACCAGUACAGAAAUGUACCCUUGGCAGCUCACUGCAACAUGAGGAUCACCCAUGU [Ex Theophylline A 11]: Not met

Request: Check this sequence for apparent KD of MS2 coat protein at or above 30 nM: AUACAUGAGGAUCACCCAUGUAUAGUUGAAGGAGCGACCGGUGGGUCAGGUAGGUCGCAGCGCAUGGCGUCCACGCGUGUAUGCC [#1 Exclusion - Arginine A Attempt #30 (Inspired by Pi)]
Response: Not met

Request: Check this sequence for apparent KD of MS2 coat protein at or above 30 nM: AUAAGGUAUCUGCUAUCCUCAUGAGCAGAUACCAGCUAGGAAACUAGCCCUUGGCAGCUGCAACAUGAGGAUCACCCAUGUAAUA [(T)'-(M)'-(T1)-(T2)-(M1)-(M2)_Design1]
Response: Met

Request: Check this sequence for apparent KD of MS2 coat protein at or above 30 nM: `GGAUAGGACACGGCCGCCACUUGCUAGGAUACUAGCAACAUUUCCUCUCAUGAGGAUCACCCAUGAAGGACCGGGUGUCCUAUCG`
Response: Not met

----------
- Tested on: K4 kissing-loop RNA reporter;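 note: bound reporter read as fluorescence of individual clusters on recovered sequencing chips by microscopy, with normalized cluster intensities fitted with a binding model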
- PROTOCOL DESCRIPTION: apparent KD of K4 kissing-loop reporter; higher = weaker reporter binding
- MEASUREMENT CONDITIONS: Eterna round: R107; input ligand: tryptophan 2.4 mM
Provide the recorded apparent KD of K4 kissing-loop reporter for the entries that follow.
One number for each entry, in nM.

Look over these answered cases.
- CCAGUUUGAGUGAUGUUCAGGCAUUGGUACGAGGAUAUCGAGGAGUUGAGAAGGCGUACUACUCAACUAUGUAUGAAUACAUACC [FMN A Ex t2]: 116
- AUUUGUUUAUGUGAUACCAGACUUUGCAGUGAUGUUGCAUUUAUUUUAGAAGAAUAGUUUGUCCCUUGGCAGCACUAUGUAUUUA [JR_SSTheophyB_Sub006]: 41.5
- UACGCUUACUUGCGCGGUCCGAUUAACGAUACCAGCGAAGAAGCCCGCCCUUGGCAGCGUUAUAGAGUGAUGUUCACGGAGAUUA [theeternabot_sameState_KL_Theo_A_12]: 874
- AAACUUGCAGUGAUGUUGCAAGUAGGUGAUACCAGCAUCGAAAGAUGCCCUUGGCAGCACCAUCACUGUAAGUAGGUGCUGUCAA [(H1)-(H2)-(T1)-(T2)-(H)'-(T)'_Design5]: 103

Please supply apparent KD of K4 kissing-loop reporter for each of the following items, keeping them in order.
1. UUAUUAAUCACAGAUACCAGUCCAGAAUGAAUACUAUAGUGAUGUUAUAAUAAAGGGAAGGACCCUUGGCAGCUGUAAUAUAUUU [AstrosSsTheB#2]
2. GCAUCAUGCUACGAUACCAGAAGUUCCCUUUAGUGUAGUGAUGUUGCAGAUAUUGCUUACUUCCCUUGGCAGCGUUUGACGGGUA [theeternabot_sameState_KL_Theo_B_35]

Response:
1. 320
2. 155
